# targetUnderTest: human A1 receptor subtype (Homo sapiens)
# Construct: yeast alpha-factor (Mfα1) prepro leader (N, cleaved yes)
# testProtocol: Adenosine 1 receptor subtype saturation and competition radioligand binding ([3H]DPCPX, yeast membranes)
endpoint: Ki (µM)

(a) Cc1[nH]c2nc(-c3ccccc3)nc(NC3CCC(NC(=O)c4ccccc4)CC3)c2c1C (stereo not drawn)
(b) Cc1[nH]c2nc(-c3ccccc3)nc(NC3CCC(CC(=O)c4ccccc4)CC3)c2c1C (stereo not drawn)
Hi, I'm comparing two records. Which one has the lower Ki, a or b ? Field: selected label. Fill in the label of the entry you choose.
a

---

# targetUnderTest: human adenosine A1 (A1R) (Homo sapiens, UniProt P30542)
# Construct: yeast alpha-factor (Mfα1) prepro leader (N, cleaved yes)
# Sequence (P30542 whole entry): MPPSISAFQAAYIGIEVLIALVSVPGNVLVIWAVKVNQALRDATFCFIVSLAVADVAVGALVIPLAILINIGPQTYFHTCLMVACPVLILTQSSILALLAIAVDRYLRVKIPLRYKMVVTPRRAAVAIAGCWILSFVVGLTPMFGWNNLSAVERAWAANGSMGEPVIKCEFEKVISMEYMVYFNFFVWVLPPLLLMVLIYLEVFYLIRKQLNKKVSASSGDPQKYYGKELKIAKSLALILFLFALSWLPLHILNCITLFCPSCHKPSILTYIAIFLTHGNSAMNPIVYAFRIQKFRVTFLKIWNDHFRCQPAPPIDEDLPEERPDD
# testProtocol: Yeast β-galactosidase reporter gene assay, strain CY12660
# cond: inhibition of NECA-induced β-galactosidase activity
endpoint: IC50

These recorded examples may help you get a feel for the data.
Cc1[nH]c2nc(-c3ccccc3)nc(NC3CCC(NC(=O)c4ccccc4)CC3)c2c1C (stereo not drawn) [Compound 606] ... > 10 µM
Cc1[nH]c2nc(-c3ccccc3)nc(NC3CCC(CC(=O)c4ccccc4)CC3)c2c1C (stereo not drawn) [Compound 611] ... > 10 µM

Kindly consider the entry below.
Short answer please: IC50, human adenosine A1 (A1R) (Homo sapiens, UniProt P30542), entry Cc1[nH]c2nc(-c3cccnc3)nc(N[C@H]3CC[C@H](O)CC3)c2c1C [Compound 700]
> 10 µM

---

endpoint: melting point

These recorded examples may help you get a feel for the data.
NC(=O)[C@@H]1C[C@H](O)CN1c1nc(-c2ccccc2)nc2[nH]ccc12 [Compound 1606] ... 268 to 271 °C
COC(=O)c1cc2c(NC3CCC(O)CC3)nc(-c3ccccc3)nc2[nH]1 (stereo not drawn) [Compound 1627] ... 225 to 227 °C
NC(=O)[C@@H]1CCCN1c1nc(-c2ccccc2)nc2[nH]c(C(=O)O)cc12 [Compound 1619] ... 220 °C (dec.)
NC(=O)[C@@H]1CCCN1c1nc(-c2ccccc2)nc2[nH]ccc12 [Compound 1602] ... 236 to 238 °C
NC(=O)c1cc2c(NC3CCC(O)CC3)nc(-c3ccccc3)nc2[nH]1 (stereo not drawn) [Compound 1630] ... 210 to 220 °C (dec.)

For the compound shown here, COCc1cc2c(N3CCC[C@H]3C(N)=O)nc(-c3ccccc3)nc2[nH]1 [Compound 1605] , give the reported melting point.
213 to 215 °C

Origin of values: patent US20040082598A1
